# Test system: Escherichia coli (E. coli—ATCC #10536)
# experiment: Automated assessment of efficacy in surfactant base (2.85% sodium cocoyl glycinate and 1.85% sodium lauroamphoacetate, pH 10.0), 15 seconds exposure
# Format: cell-based
# condition notes: 0.2% w/v, alone, model surfactant solution
# Description: Test Methodology for Automated Assessment of Efficacy in Surfactant Base Microbiocidal Activity of Actives as Per the Invention in a Model Surfactant Medium Test Methodology for Automated Assessment of Efficacy in Surfactant Base In these examples, the efficacy of combinations of actives were tested in a surfactant cleansing formulation comprising 2.85% sodium cocoyl glycinate and 1.85% sodium lauroamphoacetate. […] OD450 increases by less than 0.2 absorbance unit on incubation and (2). […]
Each entry below lists one item and its recorded Δ OD 590 nm OD590 (time = 16 hours) − OD590 (time zero), Mean value.
parameter: Δ OD 590 nm OD590 (time = 16 hours) − OD590 (time zero), Mean

CC1CCC(CO)C(C)C1 (stereo not drawn) [dihydrofloralol, 2,4-Dimethylcyclohexylmethanol]    0.41
Oc1ccc2c(c1)CCCC2 [5,6,7,8-tetrahydronaphthalen-2-ol]    0.36
C=C(C)[C@@H]1CC=C(CO)CC1 [(S)-(−) perillyl alcohol]    0.29

###

# Test system: Escherichia coli (E. coli—ATCC #10536)
# experiment: Automated assessment of efficacy in surfactant base (2.85% sodium cocoyl glycinate and 1.85% sodium lauroamphoacetate, pH 10.0), 15 seconds exposure
# Format: cell-based
# condition notes: 0.2% w/v, alone, model surfactant solution
# Description: Test Methodology for Automated Assessment of Efficacy in Surfactant Base Microbiocidal Activity of Actives as Per the Invention in a Model Surfactant Medium Test Methodology for Automated Assessment of Efficacy in Surfactant Base In these examples, the efficacy of combinations of actives were tested in a surfactant cleansing formulation comprising 2.85% sodium cocoyl glycinate and 1.85% sodium lauroamphoacetate. […] OD450 increases by less than 0.2 absorbance unit on incubation and (2). […]
Each entry below lists one item and its recorded Δ OD 590 nm OD590 (time = 16 hours) − OD590 (time zero), Mean value.
parameter: Δ OD 590 nm OD590 (time = 16 hours) − OD590 (time zero), Mean

CC(C)(C)c1ccc(O)c(O)c1    0.17
Oc1ccccc1C1CCCC1    0.61
Cc1cc(O)cc(C)c1Cl    0.62
Oc1cccc2c1CCCC2 [5,6,7,8-tetrahydronaphthalen-1-ol]    0.65
Cc1ccc(C(C)C)c(O)c1O    0.53
CC1=CC[C@@H](CO)[C@H](C)C1 (relative stereo)    0.35
Oc1ccc(C2CCCC2)cc1    0.70
Oc1ccc(Cc2ccccc2)cc1 [4-hydroxydiphenylmethane]    0.61
CC1=CC(C)C(CO)C(C)C1 (stereo not shown)    0.29
Oc1ccccc1Cc1ccccc1 [2-hydroxydiphenylmethane]    0.63

###

# System: Escherichia coli (E. coli—ATCC #10536)
# experiment: Synergy test: high resolution MBC microtiter plate assay, phosphate buffer containing 35% dipropylene glycol, 15 seconds contact
# Type: cell-based
# condition notes: E. coli 10536; at Qa and Qb; less than one = synergy
Each entry below lists one item and its recorded SI (Synergy Index) value.
parameter: SI (Synergy Index)

Oc1ccc(Cc2ccccc2)cc1 [4-hydroxydiphenylmethane]    1.00
Oc1ccc(C2CCCC2)cc1 [4-cyclopentylphenol]    1.00
CC(C)(C)c1ccc(O)c(O)c1 [4-tert-butylbenzene-1,2-diol]    1.00
